# measured-target: UniProt:Q13547
# Sequence (Q13547 9-376 limits assumed): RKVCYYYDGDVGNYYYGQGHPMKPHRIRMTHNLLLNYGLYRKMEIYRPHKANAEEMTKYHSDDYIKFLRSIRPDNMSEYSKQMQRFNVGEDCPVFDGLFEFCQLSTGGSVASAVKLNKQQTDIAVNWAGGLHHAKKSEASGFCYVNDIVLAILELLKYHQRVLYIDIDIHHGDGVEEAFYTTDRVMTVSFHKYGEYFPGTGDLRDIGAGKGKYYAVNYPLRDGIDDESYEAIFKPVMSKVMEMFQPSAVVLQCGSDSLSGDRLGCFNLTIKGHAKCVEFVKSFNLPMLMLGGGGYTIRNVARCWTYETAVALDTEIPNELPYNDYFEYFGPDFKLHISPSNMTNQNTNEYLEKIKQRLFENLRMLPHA
# method-description: biochemical
# Assay type: biochemical
Square brackets hold non-standard residues; d marks the D form. Peptide text beside a SMILES is read from it. ξ: configuration not given here. Aoe(9ξ) = N[C@@H](CCCCCC(=O)C1CO1)C(=O)O; dPip = O=C(O)[C@H]1CCCCN1
reported-property: Ki

# compound O=C(CCCCC[C@@H]1NC(=O)[C@H]2CCCCN2C(=O)[C@H](Cc2ccccc2)NC(=O)[C@H](Cc2ccccc2)NC1=O)C1CO1 (some centres unmarked) [Compound 6, trapoxin A] (cyclo(FF[dPip][Aoe(9ξ)])) ; its Ki = ~0.003 nM

# compound C/C=C1\NC(=O)[C@H]2CSSCC/C=C/[C@H](CC(=O)N[C@H](C(C)C)C(=O)N2)OC(=O)[C@H](C(C)C)NC1=O [Compound 10, romidepsin] ; its Ki = ~0.02 nM
